folding enthalpy overview
assay: folding enthalpy; higher = less favourable; fluorescence melt of hairpins on a sequencing array, two-state fit; details: sodium 0.088 M
Expressed in kcal/mol, but write only the number.

Here are 8 sequences together with their reported answers.
| Seq | folding enthalpy [kcal/mol] |
| --- | --- |
| GGAACACGAAAGTGATCC (((.(((....))).))) | -28.5 |
| GGCAATGGAAACATTGTC (.(((((....))))).) | -33.5 |
| GGCTTTCGAAAGAACGCC (((.(((....))).))) | -39.3 |
| GGTTTGGGAAACTAGACC (((.(.(....).).))) | -18.1 |
| GAGTTACGAAAGTACTC (((.(((....)))))) | -25.4 |
| GCCAGCGAAAGCTAGGC ((((((....))).))) | -25.9 |
| GATCTCCACGAGATC ((((((...)))))) | -42 |
| GCTAAACGAAAGTTGAGC (((.(((....))).))) | -31.8 |

Prompt: For the sequence GCCTAAGGAAACCTAGGC (((((.(....).))))) , give its reported folding enthalpy.
Response: -39.3

Prompt: For the sequence GCCTCAGAAATGAGGC ((((((....)))))) , give its reported folding enthalpy.
Response: -30.8

Prompt: For the sequence GCCGAGCGAAAGCTTCGC ((..(((....)))..)) , give its reported folding enthalpy.
Response: -11.3

Prompt: For the sequence GGTGCCGAAAGGCGACC ((((((....))).))) , give its reported folding enthalpy.
Response: -16.8

Prompt: For the sequence GCAGTAGAAATACTGC ((((((....)))))) , give its reported folding enthalpy.
Response: -34.6

Prompt: For the sequence CGCCCGGAAACGGAGGCG ((((((....)))..))) , give its reported folding enthalpy.
Response: -32.5

Prompt: For the sequence GATCCAGGTATGGATC ((((((....)))))) , give its reported folding enthalpy.
Response: -35.1

All figures here come from the array DNA melting data of Ke et al. (doi:10.1101/2024.01.08.574731).
